Data origin, for the record: paper PMC9865890

- System: P. ochrochloron
- Protocol notes: Antifungal bioassay (MIC/MFC)
- Format: cell-based
- Experimental context: Penicillium ochrochloron; P.o. (P. ochrochloron)
Reported property: MFC (µg/mL)
Give bare numbers, in µg/mL.

The cases that follow already have their MFC on record.
Compound: COC(=O)c1[nH]c2ccccc2c1/C=C1\SC(=S)N(CCCN2CCOCC2)C1=O [Compound 5]
Reported property: MFC
Unit symbol: µg/mL
Reading: 15
--
Compound: COC(=O)c1[nH]c2ccccc2c1/C=C1\SC(=S)N(c2cccc(O)c2)C1=O [Compound 3]
Reported property: MFC
Unit symbol: µg/mL
Reading: 15

Go through the items and report each one's MFC.
1. c1ccc(-c2ccc(C(c3ccccc3)n3ccnc3)cc2)cc1 (stereo not drawn) [Bifonazole, reference compound]
2. COC(=O)c1[nH]c2ccccc2c1/C=C1\SC(=S)N(c2ccc(C(=O)O)cc2)C1=O [Compound 2]
3. COC(=O)c1[nH]c2ccccc2c1/C=C1\SC(=S)N(Cc2ccco2)C1=O [Compound 7]
4. COC(=O)c1[nH]c2ccc(F)cc2c1/C=C1\SC(=S)N(CCC(=O)O)C1=O [Compound 14]
5. COC(=O)c1[nH]c2ccccc2c1/C=C1\SC(=S)N(c2ccc(O)cc2)C1=O [Compound 4]
6. COC(=O)c1[nH]c2cc(OC)ccc2c1/C=C1\SC(=S)N(c2cccc(F)c2)C1=O [Compound 13]
7. COC(=O)c1[nH]c2ccccc2c1/C=C1\SC(=S)N(N2CCOCC2)C1=O [Compound 6]

1. 250
2. 30
3. 15
4. 30
5. 30
6. 30
7. 15
